Test system: Zika virus NS2B-NS3 protease (linked construct)
Test: Primary screen NINDS Rhodamine qHTS for Zika virus inhibitors (AID 1347160); note: nearly all actives have a fitted effect of over 55% in size
Details: purified NS2B-NS3 protease, Rhodamine110 substrate fluorescence; series mostly up to 57.1 µM
Description: Avindra Nath, Ph.D., National Institute of Neurological Disorders and Stroke (NINDS), Bethesda, MD Radhakrishnan Padmanabhan, Ph.D., Georgetown University (GU), Washington D.C. Zika Virus causes congenital defects, including microcephaly and is associated with Guillain-Barre syndrome, eningoencephalitis and myelitis in infected adult. […]
Records with an inconclusive call do not appear. Calls of active or inactive are those of the source. Calls come from the whole dose curve; as a rule, active = well fitted inhibition curve with a large enough effect; inconclusive = small, poorly fitted or top-dose-only effect; inactive = no such curve, though single readings can be large or run the other way.
Returns: one label drawn from active, inactive

Challenge: Given C=C1CC2OC(=O)C(COC)C2C(OC(=O)/C(C)=C\C)CC2(C)OC1=CC2=O (configuration not stated) , state the outcome it received in this test.
Response given: inactive

Challenge: Check the results log: what was the call for Cc1cc(C)c2c(c1)C(N(Cc1cc(C(F)(F)F)cc(C(F)(F)F)c1)c1nnn(C)n1)CCCN2CC1CCC(C(=O)O)CC1 (configuration not stated) ?
Response given: active

Challenge: Hi team, can someone confirm the assay call for "CC(=O)OC/C(=C/C(=O)O)CC[C@@H]1C(C=O)=CC[C@@H]2C(C)(C)CCC[C@@]12C" ?
Response given: inactive

Challenge: Please let me know the test result on file for "O=C(NCCCN1CCOCC1)c1cnn2c(-c3ccccc3)cc(-c3ccccc3)nc12" .
Response given: inactive

Challenge: // param item: "O=C(NO)c1cnc(N2CCN(S(=O)(=O)c3ccc4ccccc4c3)CC2)nc1" ; yields the recorded call
Response given: inactive

Challenge: What did this assay record as the result for "Cc1ccc(OC[C@H](O)[C@H](C)NC(C)C)c2c1CCC2" ?
Response given: inactive

Challenge: Entry "CCN(CC)CCCCCCNc1cc(OC)cc2c(C)ccnc12" : call = ?
Response given: inactive

Challenge: // outcome(item) with item = O=C(Nc1ccc(Cl)cc1)C1CCCN(C(=O)c2cccc(-c3ccco3)c2)C1 (configuration not stated)
Response given: inactive

Challenge: # lookup: test call for "Cc1cc(-c2nc3cc(F)ccc3s2)ccc1NC(=O)[C@@H](N)CCCCN"
Response given: inactive

Challenge: In this assay, the call recorded for "C[C@H](Nc1ncnc2nc[nH]c12)c1cc2cccc(Cl)c2c(=O)n1-c1ccccc1" was what?
Response given: inactive

Challenge: Would you mind telling me which call this test gave CN1CC2CN(c3ccc4oc5ccccc5c(=O)c4c3)CC2C1 (configuration not stated) ?
Response given: inactive

Challenge: Check the results log: what was the call for CC(C)(C)Oc1ccc(OCC2Cc3ccccc3CN2C(=O)c2cccc3ccccc23)cc1 (configuration not stated) ?
Response given: inactive

Challenge: GET /call?item= "O=S(=O)(Nc1cc(Cl)c(Oc2cnc3ccccc3c2)c(Cl)c1)c1ccc(Cl)cc1Cl" returns the recorded outcome of this test.
Response given: active

Challenge: How did this test come out for "O=C(O)c1ccc(N2C(=O)/C(=C/c3ccc(-c4ccc([N+](=O)[O-])cc4)o3)C=C2c2ccccc2)cc1" ?
Response given: active

Challenge: Dear colleague, could you share the recorded outcome for C[C@@H]1O[C@@H](O[C@H]2CC[C@@]3(C)C(CC[C@]4(C)C3CC=C3[C@@H]5CC(C)(C)CC[C@]5(C(=O)O[C@@H]5O[C@H](CO)[C@@H](O)[C@H](O)[C@H]5O)CC[C@]34C)[C@]2(C)CO)[C@H](O)[C@H](O[C@@H]2O[C@H](CO)[C@@H](O)[C@H](O)[C@H]2O)[C@H]1O (some centres not stated) when you have a moment?
Response given: inactive

Challenge: Lab log entry: "Cc1csc2c(N[C@@H](C)CN3CCN(S(=O)(=O)c4ccc(Cl)c(Cl)c4)CC3)ncnc12" — outcome as called in the assay?
Response given: inactive

Challenge: Per the records of this test, what outcome belongs to "CC(=O)O[C@H]1C[C@@](O)(C(C)C)[C@@H]2[C@@H](OC(=O)c3ccc(O)cc3)CC(C)=CC[C@@]12C" ?
Response given: inactive
